Let's go through some Ki measurements on Glutamate receptor ionotropic, NMDA 2B (Rattus norvegicus) together.
Sequence (Q00960 whole entry): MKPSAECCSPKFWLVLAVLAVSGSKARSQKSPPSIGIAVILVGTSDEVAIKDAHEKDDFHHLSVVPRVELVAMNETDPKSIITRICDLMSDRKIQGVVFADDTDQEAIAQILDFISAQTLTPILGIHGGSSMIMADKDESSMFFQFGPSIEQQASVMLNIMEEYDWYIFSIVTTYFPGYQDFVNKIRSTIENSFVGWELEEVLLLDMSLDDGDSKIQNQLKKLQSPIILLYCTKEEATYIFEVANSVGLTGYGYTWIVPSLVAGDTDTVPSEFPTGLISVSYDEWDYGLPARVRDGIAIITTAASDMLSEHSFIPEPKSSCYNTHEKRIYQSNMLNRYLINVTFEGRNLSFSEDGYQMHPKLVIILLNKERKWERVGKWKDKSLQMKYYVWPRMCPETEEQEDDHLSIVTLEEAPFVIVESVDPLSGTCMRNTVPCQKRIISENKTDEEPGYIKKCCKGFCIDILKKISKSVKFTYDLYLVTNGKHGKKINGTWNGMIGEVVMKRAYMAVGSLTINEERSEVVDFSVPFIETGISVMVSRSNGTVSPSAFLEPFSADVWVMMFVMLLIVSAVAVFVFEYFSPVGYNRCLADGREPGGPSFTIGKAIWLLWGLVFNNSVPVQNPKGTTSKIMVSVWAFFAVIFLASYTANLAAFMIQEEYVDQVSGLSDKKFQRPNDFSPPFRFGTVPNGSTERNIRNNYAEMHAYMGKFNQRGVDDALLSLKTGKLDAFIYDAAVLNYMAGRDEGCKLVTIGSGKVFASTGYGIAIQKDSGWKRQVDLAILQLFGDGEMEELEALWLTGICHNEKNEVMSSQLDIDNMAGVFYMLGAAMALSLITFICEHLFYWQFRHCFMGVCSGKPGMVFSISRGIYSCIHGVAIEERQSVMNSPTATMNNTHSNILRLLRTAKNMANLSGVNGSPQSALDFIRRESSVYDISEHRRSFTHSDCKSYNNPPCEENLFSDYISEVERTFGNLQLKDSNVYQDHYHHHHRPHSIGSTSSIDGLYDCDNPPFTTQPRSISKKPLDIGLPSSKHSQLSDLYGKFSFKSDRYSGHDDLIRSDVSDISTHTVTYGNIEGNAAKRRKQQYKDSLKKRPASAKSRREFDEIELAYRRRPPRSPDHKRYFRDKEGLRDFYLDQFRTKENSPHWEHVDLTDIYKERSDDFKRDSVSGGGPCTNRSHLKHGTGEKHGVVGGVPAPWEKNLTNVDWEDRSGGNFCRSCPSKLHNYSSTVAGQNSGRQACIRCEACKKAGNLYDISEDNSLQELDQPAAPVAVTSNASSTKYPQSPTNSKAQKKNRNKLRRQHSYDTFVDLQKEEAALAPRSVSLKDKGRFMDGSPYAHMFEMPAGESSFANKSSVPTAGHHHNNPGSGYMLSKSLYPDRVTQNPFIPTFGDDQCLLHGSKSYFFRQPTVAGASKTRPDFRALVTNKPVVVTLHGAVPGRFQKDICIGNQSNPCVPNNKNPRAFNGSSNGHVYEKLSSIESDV
Quantity Kind: Ki (µM)

[[record]]
molecule = "COc1ccc2c3c1O[C@H]1C[C@@H](O)C=C[C@@]31CCN(CCCCCCNC13CC4CC(C)(CC(C)(C4)C1)C3)C2 [MEMAGAL]"
quantity_kind = "Ki"
sign_qualifier = "="
numeric_value = 4.6

[[record]]
molecule = "COc1ccc2c3c1O[C@H]1C[C@@H](O)C=C[C@@]31CCN(CCCCCCCCN(C)C13CC4CC(C)(CC(C)(C4)C1)C3)C2"
quantity_kind = "Ki"
sign_qualifier = ">"
numeric_value = 100

[[record]]
molecule = "COc1ccc2c3c1O[C@H]1C[C@@H](O)C=C[C@@]31CCN(CCCCCCCCCNC13CC4CC(C)(CC(C)(C4)C1)C3)C2"
quantity_kind = "Ki"
sign_qualifier = ">"
numeric_value = 100

[[record]]
molecule = "COc1ccc2c3c1O[C@H]1C[C@@H](O)C=C[C@@]31CCN(CCOCCOCCNC13CC4CC(C)(CC(C)(C4)C1)C3)C2"
quantity_kind = "Ki"
sign_qualifier = ">"
numeric_value = 100

[[record]]
molecule = "COc1ccc2c3c1O[C@H]1C[C@@H](O)C=C[C@@]31CCN(CCOCCNC13CC4CC(C)(CC(C)(C4)C1)C3)C2"
quantity_kind = "Ki"
sign_qualifier = ">"
numeric_value = 100

[[record]]
molecule = "COc1ccc2c3c1O[C@H]1C[C@@H](O)C=C[C@@]31CCN(CCCCCC(=O)NC13CC4CC(C)(CC(C)(C4)C1)C3)C2"
quantity_kind = "Ki"
sign_qualifier = "="
numeric_value = 9.76

[[record]]
molecule = "COc1ccc2c3c1O[C@H]1C[C@@H](O)C=C[C@@]31CCN(CCCCCCCNC13CC4CC(C)(CC(C)(C4)C1)C3)C2"
quantity_kind = "Ki"
sign_qualifier = "="
numeric_value = 11

